- Tested on: IGR37 cells (parental)
- assayInfo: Kinase inhibitor library screening, PrestoBlue cell viability, 1 or 10 μM, 72 h
- conditionsUsed: IGR37 Parental; 1μΜ; 72 h; in %
measureName: cell viability, IGR37 Parental, 1μΜ

Nc1ncnc2c1c(-c1cccc(OCc3ccccc3)c1)cn2C1CC(CN2CCCC2)C1 (stereo not drawn) ... 110.2

Query string: Can you look up the measured cell viability, IGR37 Parental, 1μΜ of CN(C)Cc1cccc(N/C(=C2\C(=O)Nc3cc(C(=O)N(C)C)ccc32)c2ccccc2)c1 for me?
Result string: 100.1

Query string: Can you look up the measured cell viability, IGR37 Parental, 1μΜ of COc1cc2ncnc(Nc3ccc(O)c(Br)c3)c2cc1OC for me?
Result string: 97.1

Query string: Can you look up the measured cell viability, IGR37 Parental, 1μΜ of CC(=O)Nc1cccc(-n2c(=O)n(C3CC3)c(=O)c3c(Nc4ccc(I)cc4F)n(C)c(=O)c(C)c32)c1 for me?
Result string: 37.2

====

- Test system: 501Mel-GP cells (Dabrafenib-resistant)
- assayInfo: Kinase inhibitor library screening, PrestoBlue cell viability, 1 or 10 μM, 72 h
- conditionsUsed: 501Mel GP; 10μΜ; 72 h; in %
cell viability, 501Mel GP, 10μΜ: recorded values
Keep the answer to the number alone.

N#C/C(=C\c1ccc(O)c(O)c1)C(=O)NCc1ccccc1 ... 86.5

Query string: Can you look up the measured cell viability, 501Mel GP, 10μΜ of COc1cccc(-c2cc(=O)c3ccccc3o2)c1N for me?
Result string: 84.1

Query string: Can you look up the measured cell viability, 501Mel GP, 10μΜ of CCOc1cc2ncc(C#N)c(Nc3ccc(F)c(Cl)c3)c2cc1NC(=O)/C=C/CN(C)C [Pelitinib (EKB-569)] for me?
Result string: 92.4

Query string: Can you look up the measured cell viability, 501Mel GP, 10μΜ of CC(C)(C)c1cc(/C=C(\C#N)C(N)=S)cc(C(C)(C)C)c1O for me?
Result string: 23.6

Query string: Can you look up the measured cell viability, 501Mel GP, 10μΜ of C=CC(=O)Nc1cccc(Sc2nc(Nc3ccc(N4CCN(C)CC4)cc3)ncc2Cl)c1 for me?
Result string: 0.0662

Query string: Can you look up the measured cell viability, 501Mel GP, 10μΜ of CNC(=O)c1c(F)cccc1Nc1nc(Nc2cc3c(cc2OC)CCN3C(=O)CN(C)C)nc2[nH]ccc12 [GSK1838705A, reference compound] for me?
Result string: -0.19

Query string: Can you look up the measured cell viability, 501Mel GP, 10μΜ of CN1CCN(c2cccc(Nc3nc4c(-c5ccc(S(C)(=O)=O)cc5)cccn4n3)c2)CC1 for me?
Result string: 81.6

Query string: Can you look up the measured cell viability, 501Mel GP, 10μΜ of CC(O)C(=O)O.CC(O)C(=O)O.CN1CCN(c2ccc3nc(-c4c(N)c5c(F)cccc5[nH]c4=O)[nH]c3c2)CC1 for me?
Result string: 0.0395

====

cell viability, IGR37 GP, 1μΜ: recorded values
- Test system: IGR37-GP cells (Dabrafenib-resistant)
- assayInfo: Kinase inhibitor library screening, PrestoBlue cell viability, 1 or 10 μM, 72 h
- conditionsUsed: IGR37 GP; 1μΜ; 72 h; in %
- Procedure: After 72 h of treatment, cell viability was assessed using the PrestoBlue Cell Viability Reagent (ThermoFisher Scientific). Measurements were performed with the CLARIOstar Monochromator microplate reader (BMG Labtech). Kinase inhibitor library screening. […] Drugs were added at 2 different concentrations, 1 and 10 μM, for 72 h and cell viability was assessed using the PrestoBlue Cell Viability assay. […] Each cell line was analyzed at least in duplicate. […]

Example entries and their recorded answers appear below.
CC(C)(C)c1cc(C=C(C#N)C#N)cc(Br)c1O ... 96.1
CCO.N#CC(=C(/N)Sc1ccccc1N)/C(C#N)=C(\N)Sc1ccccc1N ... 93.8
C#Cc1cccc(Nc2ncnc3cc(OCCOC)c(OCCO)cc23)c1 [OSI-420 (Desmethyl Erlotinib)] ... 91.6
COc1cc2ncnc(Nc3ccc(O)c(Br)c3)c2cc1OC ... 94.4

Query string: Can you look up the measured cell viability, IGR37 GP, 1μΜ of CCN1CCN(Cc2ccc(-c3cc4c(N[C@H](C)c5ccccc5)ncnc4[nH]3)cc2)CC1 for me?
Result string: 94.0

Values were extracted from paper PMC6364417.
